target_of_assay: Adenosine receptor A3 (Homo sapiens, UniProt P0DMS8)
Sequence (P0DMS8 whole entry): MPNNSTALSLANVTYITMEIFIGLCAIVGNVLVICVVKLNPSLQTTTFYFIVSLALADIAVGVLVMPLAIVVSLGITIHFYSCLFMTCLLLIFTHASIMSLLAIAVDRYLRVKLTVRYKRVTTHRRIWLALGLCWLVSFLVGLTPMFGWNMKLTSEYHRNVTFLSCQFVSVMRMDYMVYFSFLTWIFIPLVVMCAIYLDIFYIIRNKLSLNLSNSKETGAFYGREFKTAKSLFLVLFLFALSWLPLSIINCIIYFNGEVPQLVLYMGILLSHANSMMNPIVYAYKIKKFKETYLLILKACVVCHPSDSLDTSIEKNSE
measurement_description: Displacement of [3H]PSB-11 from human adenosine A3 receptor expressed in CHO cell membranes
Below, each entry is listed with its recorded Ki.

CCCCn1c(=O)c2c(nc3n2CCCN3CCc2ccc(OCC(=O)NCc3ccc(Cl)cc3)cc2)n(CCCC)c1=O; > 1000 nM
CCCCn1c(=O)c2c(nc3n2CCCN3CCc2ccc(OCC(=O)NCc3cccc(Cl)c3)cc2)n(CCCC)c1=O; > 1000 nM
CCCn1c(=O)c2c(nc3n2CCCN3CCc2ccc(OCC(=O)NCCN3CCCC3)cc2)n(CCC)c1=O; 509 nM
CCCCn1c(=O)c2c(nc3n2CCCN3CCc2ccc(OCC(=O)NCCN3CCCC3)cc2)n(CCCC)c1=O; 204 nM
CCCCn1c(=O)c2c(nc3n2CCCN3CCc2ccc(OCC(=O)NCCN3CCOCC3)cc2)n(CCCC)c1=O; > 1000 nM

The reported Ki of the compound CCCn1c(=O)c2c(nc3n2CCCN3CCc2ccc(OCC(=O)NCCc3ccc(S(N)(=O)=O)cc3)cc2)n(CCC)c1=O was > 1000 nM

The reported Ki of the compound CCCCn1c(=O)c2c(nc3n2CCCN3CCc2ccc(OCC(=O)NCCCNC3CCCCC3)cc2)n(CCCC)c1=O was 353 nM

The reported Ki of the compound CCCn1c(=O)c2c(nc3n2CCCN3CCc2ccc(OCC(=O)NCCN3CCOCC3)cc2)n(CCC)c1=O was > 1000 nM
